Source: the supplement of paper PMC3334620

# MEASURED ON: Msn1 (UniProt P22148)
# Sequence: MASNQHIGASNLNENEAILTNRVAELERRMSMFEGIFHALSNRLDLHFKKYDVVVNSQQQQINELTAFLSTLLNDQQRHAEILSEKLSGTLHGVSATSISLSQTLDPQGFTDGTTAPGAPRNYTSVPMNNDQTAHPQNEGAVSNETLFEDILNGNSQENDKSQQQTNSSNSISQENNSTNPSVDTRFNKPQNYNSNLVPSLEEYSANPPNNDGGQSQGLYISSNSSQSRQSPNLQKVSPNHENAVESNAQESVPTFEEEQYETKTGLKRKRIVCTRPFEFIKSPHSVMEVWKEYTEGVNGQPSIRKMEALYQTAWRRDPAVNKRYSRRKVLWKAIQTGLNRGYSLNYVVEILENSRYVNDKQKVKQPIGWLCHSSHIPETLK
# ASSAY PROTOCOL: PBM E-score (8-mer binding enrichment) (E-score (-0.5 to 0.5)); higher = stronger / more preferred TF binding
# RUN PARAMETERS: protein concentration: 200 nM; construct: GST-full length
The full ranking holds about 33,000 sequences; the median of “E-score (-0.5 to 0.5)” is about -0.013, and the highest 2% start at about 0.3. What follows is part of a selection rich in the highest values, with near analogues and random picks from the rest.
Kindly state PBM E-score for each of the entries shown.
One number for each entry.

Solved cases (4 shown):
MONOMER SEQUENCE | PBM E-score
AGGACACT | 0.358
AGTCCTAA | 0.297
ATGTTTTG | 0.12
CCAAATTC | 0.0869

Batch lookup, PBM E-score per entry.
1. GCTAGTGA
2. CGCCGGCG
3. AGGACACG
4. CGTGCAGC
5. ACGGACGA

**A:**
[-0.00743, 0.204, 0.467, -0.0365, 0.0949]

State recorded PBM E-score for all listed sequences.
1. AAGACATA
2. GTGCCTGA
3. ATTGTGTA
4. ACATGTCA

**A:**
[0.382, -0.25, 0.14, 0.358]

Go through the items and report each one's PBM E-score.
1. ATTCGTCC
2. GCGGACAA
3. AAGCTAAA
4. GTGTCTCA
5. CCACCAAC
6. CCGGACAA
7. GCAGAGGC

**A:**
0.323
0.44
0.12
0.286
-0.0306
0.452
-0.241
